Reported emission maximum values for a set of compounds
# PROTOCOL_SUMMARY: solvent given as SMILES
# CONDITIONS_USED: in CCCCCCO
PROPERTY_NAME: emission maximum

c1ccc2sc(-c3ccc(-c4nnc(-c5ccc(-c6nnc(-c7ccc(-c8cc9ccccc9s8)s7)o6)cc5)o4)s3)cc2c1; 399 nm
COC(=O)C(Cc1ccc2oc(-c3ccc(Nc4ccccc4)cc3)nc2c1)NC(=O)OC(C)(C)C (stereo not given); 429 nm
Oc1cccc(/N=C/c2ccccc2Oc2ccccc2)c1; 400 nm
CCN(CC)c1ccc2c(C)cc(=O)oc2c1; 444 nm
CCC1=C(C)C2=C(C)c3c(C)c(CC)c(C)n3[B-](F)(F)[N+]2=C1C; 534.8 nm

* * *

# PROTOCOL_SUMMARY: solvent given as SMILES
# CONDITIONS_USED: in CC#N
PROPERTY_NAME: emission maximum (nm)

Oc1cccc(/N=C/c2ccccc2Oc2ccccc2)c1; 395
CC(C)(C)c1ccc2c(c1)sc1[n+]2[B-](F)(F)n2c(c3cccc4c(Br)ccc2c43)=C1C#N; 558
Oc1ccccc1/C=N/N=C/c1ccccc1O; 588.24
CN(C)c1ccc(/C=C/c2cc[n+](C)c3ccccc23)cc1; 703
CCC1=C(C)C2=Cc3c4ccccc4c4n3[B-](c3ccc(OC)cc3)(Oc3ccccc3-4)[N+]2=C1C (stereo not given); 634

* * *

# PROTOCOL_SUMMARY: solvent given as SMILES
# CONDITIONS_USED: in CC#N
Reported emission maximum values for a set of molecules
PROPERTY_NAME: emission maximum

c1ccc2c(-n3cnc4ccccc43)cccc2c1; 362 nm
COc1ccc(-c2ccc(-c3ccc(OC)cc3)c3nc(-c4ccccc4)c(-c4ccccc4)nc23)cc1; 512 nm
CCC1(CC)c2cc(B(c3c(C)cc(C)cc3C)c3c(C)cc(C)cc3C)ccc2-c2ccc(N(c3ccccc3)c3ccc4c(c3)C(CC)(CC)c3cc(B(c5c(C)cc(C)cc5C)c5c(C)cc(C)cc5C)ccc3-4)cc21; 538 nm
c1cc2c3c(cccc3c1)C(N1CCOCCOCCOCCOCC1)=N2; 590 nm
CSc1sc(C(N)=O)c2nnn(C)c(=O)c12; 505 nm
CN(C)c1ccc(/C=C/c2cc(/C=C/c3ccc(N(C)C)cc3)nc(/C=C/c3ccc(N(c4ccccc4)c4ccccc4)cc3)n2)cc1; 584 nm
CC(=O)n1cc(/C=C/c2ccc([N+](=O)[O-])cc2)c2ccccc21; 428 nm
c1ccc2c(c1)CCc1ccccc1N2; 354 nm
CC1=CC2=Nc3nc(C)[n+](C)cc3CN2C=C1; 432 nm

* * *

Reported emission maximum values for a set of compounds
# PROTOCOL_SUMMARY: solvent given as SMILES
# CONDITIONS_USED: in CC#N
PROPERTY_NAME: emission maximum (nm)

O=c1oc2cc3c(cc2cc1/C=C/c1ccccc1)OCO3; 469
CCN(CC)c1ccc2nc3c4ccccc4c(=O)cc-3oc2c1; 620
OCCSc1cccc2[n+]1[B-](F)(F)n1c(c3cccc4cccc1c43)=N2; 502
CCOC(=O)/C(C#N)=C\c1ccc2c(c1)c1ccccc1n2-c1ccc(C)cc1; 508
Cc1ccc([C@@H]2C[C@](O)(c3ccccn3)C[C@](O)(c3ccccn3)[C@H]2C(=O)c2ccc(N(c3ccccc3)c3ccccc3)cc2)cc1; 525
Cc1ccc2nc3[nH]c(=O)[nH]c(=O)c3nc2c1C; 469
CNc1cccc2c1C(=O)c1ccccc1-2; 533
CN(C)c1nc(N)nc2c1nc(C#N)n2Cc1ccccc1; 378
CC(=O)OC[C@@H]1O[C@H](N2C=CC3=Nc4nc(C)[n+](C)cc4CN3C2=O)[C@@H](O)[C@H]1O; 416
CN(C)c1ccc(-c2nc3cc(C(F)(F)F)ccc3n2-c2ccccc2)cc1; 406
C(#Cc1cccc(C#Cc2ccc(-n3c4ccccc4c4ccccc43)cc2)c1)c1ccc(-n2c3ccccc3c3ccccc32)cc1; 425
COC1=[N+]2C(=C(c3ccccc3)c3cc(SC#N)c(OC)n3[B-]2(F)F)C=C1SC#N; 553
Cc1ccc(-c2ccc(/C=C/c3ccccc3)cn2)nc1; 392
CCC1(CC)c2cc(C=O)ccc2-c2ccc(N(C)C)cc21; 521
COC(=O)C(Cc1ccc2oc(-c3ccc(Nc4ccccc4)cc3)nc2c1)NC(=O)OC(C)(C)C (centres undefined); 452
Cc1ccc(-c2ccc(/C=C/c3cccn3C)cn2)nc1; 488
Cc1ccc(C)c2nc3c(=O)[nH]c(=O)[nH]c3nc12; 491
CCN(CC)c1ccc(-n2cccc2)cc1; 337
CN(C)c1ccc2nc(/C=C/c3cc4c5c(c3)CCCN5CCC4)c(=O)oc2c1; 709
CCN(CC)c1ccc2cc(/C=C/c3ccccc3)c(=O)oc2c1; 477
COc1ccc(/C=C/c2ccccc2)cc1; 374
COC(C)CC1=N/C(=C\c2cccc(N(C)C)c2)C(=O)N1C (centres undefined); 632
Cc1cccc2nc3c(=O)[nH]c(=O)[nH]c3nc12; 449
Cc1cc(O)c(C(=O)/C=C/c2ccc(Cl)cc2)c(=O)o1; 497
Nc1cccc2c1-c1ccccc1C2=O; 604
CCCCC1(c2ccccc2)Nc2c(-c3ccc(OC)cc3)ccc(-c3ccc(OC)cc3)c2N=C1c1ccccc1 (centres undefined); 556
CC(=O)Nc1ccc2c3c(cccc13)C(=O)c1ccccc1-2; 539.96
c1ccc(-c2nc(-c3c[nH]c4ccccc34)n3ccccc23)cc1; 506
CCCCC(CC)CN1C(=O)c2cccc3c(C#Cc4ccc(N(c5ccccc5)c5ccccc5)cc4)ccc(c23)C1=O (centres undefined); 547
CC1=CC(C)=[N+]2C1=C(c1c3ccccc3c(C)c3ccccc13)c1c(C)cc(C)n1[B-]2(F)F; 518
CNc1cccc2c1C(=O)c1ccccc1C2=O; 617
O=c1oc2ccccc2cc1-c1ccc([N+](=O)[O-])cc1; 409
O=C1C2=C(O[B-](F)(F)[n+]3c2ccc2ccccc23)c2ccc(N3CCOCC3)c3cccc1c23; 553
N#Cc1nn(-c2ccc(Cl)cc2)nc1N1CCCC1; 429
CN(C)c1ccc(C=C/C=C/C=C/c2ccc(C#N)cc2)cc1; 658
COC1=[N+]2C(=C(c3ccccc3)c3ccc(OC)n3[B-]2(F)F)C=C1SC#N; 539
CN(C)c1ccc(/C=C/c2ccc3ccccc3[n+]2C)cc1; 618
Cc1cc(=O)oc2c1cc(Br)c1occ(C)c12; 413
FC(F)(F)c1ccc(/C=C/c2nc3c(ccc4ccccc43)s2)cc1; 445
NS(=O)(=O)c1ccc(N2N=C(c3ccc(O)cc3)CC2c2ccc(Cl)cc2)cc1 (centres undefined); 417
CCC1=C(C)C2=C(c3c4ccccc4c(C)c4ccccc34)c3c(C)c(CC)c(C)n3[B-](F)(F)[N+]2=C1C; 538
COc1ccc2oc(-c3cc4cc(OC)ccc4oc3=O)cc2c1; 480
O=C1c2ccccc2NCN1Cc1ccccc1; 416
CCOC(=O)c1sc(SC)c2c(=O)[nH]nnc12; 478

All values here come from the Deep4Chem optical property database.
